system: metabolically active cells; test: Cell viability luminescence assay; type: cell-based; conditions: 24 hours incubation
Output: class label from Viability (100 μM) 24 hours. Mapping: bin A (below 0.6), bin B (0.6 to below 0.9), bin C (0.9 or more)

{"testSmiles": "Fc1ccc(CN(Cc2ccccc2)Cc2ccc(-c3ccccc3-c3nn[nH]n3)cc2)cc1", "assaySystem": "metabolically active cells", "group": "bin B"}
{"testSmiles": "CC(C)(C)c1ccc(CN(Cc2ccncc2)Cc2ccc(F)cc2)cc1", "assaySystem": "metabolically active cells", "group": "bin B"}
{"testSmiles": "CN(C)c1ccc(CN(Cc2ccccc2)Cc2ccc(N(C)C)cc2)cc1", "assaySystem": "metabolically active cells", "group": "bin A"}
{"testSmiles": "Fc1ccc(CN(Cc2ccncc2)Cc2ccc(F)cc2)cc1", "assaySystem": "metabolically active cells", "group": "bin B"}
{"testSmiles": "Oc1ccc(O)c(CN(Cc2ccncc2)Cc2ccc(F)cc2)c1", "assaySystem": "metabolically active cells", "group": "bin A"}
{"testSmiles": "COc1ccc(CN(Cc2ccccc2)Cc2ccc(OC)cc2)cc1", "assaySystem": "metabolically active cells", "group": "bin C"}
{"testSmiles": "CN(C)c1ccc(CN(Cc2ccccc2)Cc2ccc3c(c2)CCO3)cc1", "assaySystem": "metabolically active cells", "group": "bin A"}
{"testSmiles": "COc1ccc(CN(Cc2ccc(OC)cc2)Cc2nccs2)cc1", "assaySystem": "metabolically active cells", "group": "bin C"}
{"testSmiles": "CN(C)c1ccc(CN(Cc2ccccc2)CC(c2ccccc2)c2ccccc2)cc1", "assaySystem": "metabolically active cells", "group": "bin B"}
{"testSmiles": "Oc1ccc(O)c(CN(Cc2ccncc2)Cc2cc(O)ccc2O)c1", "assaySystem": "metabolically active cells", "group": "bin A"}
{"testSmiles": "COC(=O)c1ccc(CN(Cc2ccccc2)Cc2ccc(F)cc2)cc1", "assaySystem": "metabolically active cells", "group": "bin A"}
{"testSmiles": "O=C(O)c1ccc(CN(Cc2ccccc2)Cc2ccc(F)cc2)cc1", "assaySystem": "metabolically active cells", "group": "bin C"}
{"testSmiles": "Fc1ccc(CN(Cc2ccc(F)cc2)Cc2nccs2)cc1", "assaySystem": "metabolically active cells", "group": "bin C"}

###

test: Aqueous solubility of free bases and various salts by dissolution at room temperature; format: physicochemical; conditions: water, thermodynamic from solid, mesylate salt, read-out: Solubility Mesylate salt
Recorded measurements of solubility, one per entry
measurementName: solubility

{"testSmiles": "Nc1ccc(CN(Cc2ccccc2)Cc2ccc(N)cc2)cc1", "measurementName": "solubility", "endpointResult": "> 22000 µg/mL"}
{"testSmiles": "O=C(Nc1ccccc1)Nc1ccc(CN(Cc2ccccc2)Cc2ccc(NC(=O)Nc3ccccc3)cc2)cc1", "measurementName": "solubility", "endpointResult": "< 500 µg/mL"}
{"testSmiles": "O=[N+]([O-])c1ccc(CN(Cc2ccccc2)Cc2ccc([N+](=O)[O-])cc2)cc1", "measurementName": "solubility", "endpointResult": "< 3000 µg/mL"}
{"testSmiles": "CN(C)c1ccc(CN(Cc2ccccc2)Cc2ccc(N(C)C)cc2)cc1", "measurementName": "solubility", "endpointResult": "94000 µg/mL"}
{"testSmiles": "Cc1ccc(NC(=O)Nc2ccc(CN(Cc3ccccc3)Cc3ccc(NC(=O)Nc4ccc(C)cc4)cc3)cc2)cc1", "measurementName": "solubility", "endpointResult": "< 50 µg/mL"}
{"testSmiles": "COC(=O)c1ccc(CN(Cc2ccccc2)Cc2ccc(C(=O)OC)cc2)cc1", "measurementName": "solubility", "endpointResult": "< 360 µg/mL"}
{"testSmiles": "CC(C)(C)c1ccc(CN(Cc2ccccc2)Cc2ccc(C(C)(C)C)cc2)cc1", "measurementName": "solubility", "endpointResult": "< 50 µg/mL"}
{"testSmiles": "O=C(Nc1ccc(F)cc1)Nc1ccc(CN(Cc2ccccc2)Cc2ccc(NC(=O)Nc3ccc(F)cc3)cc2)cc1", "measurementName": "solubility", "endpointResult": "< 1500 µg/mL"}
{"testSmiles": "CCN(CC)c1ccc(CN(Cc2ccccc2)Cc2ccc(N(CC)CC)cc2)cc1", "measurementName": "solubility", "endpointResult": "> 34000 µg/mL"}
{"testSmiles": "O=C(O)c1ccc(CN(Cc2ccccc2)Cc2ccc(C(=O)O)cc2)cc1", "measurementName": "solubility", "endpointResult": "< 50 µg/mL"}

###

Listed below: solubility values for each entry.
Experiment: Aqueous solubility of free bases and various salts by dissolution at room temperature
Assay type: physicochemical
Settings: water, thermodynamic from solid, free base, read-out: Solubility free base
Experimental: The aqueous solubility of various amine compounds and their corresponding salts were determined by dissolution of various amounts of the respective compounds at room temperature.

{"testSmiles": "O=[N+]([O-])c1ccc(CN(Cc2ccccc2)Cc2ccc([N+](=O)[O-])cc2)cc1", "solubility": "< 3000 µg/mL"}
{"testSmiles": "O=C(Nc1ccc(F)cc1)Nc1ccc(CN(Cc2ccccc2)Cc2ccc(NC(=O)Nc3ccc(F)cc3)cc2)cc1", "solubility": "< 1500 µg/mL"}
{"testSmiles": "CN(C)c1ccc(CN(Cc2ccccc2)Cc2ccc(N(C)C)cc2)cc1", "solubility": "< 160 µg/mL"}
{"testSmiles": "COC(=O)c1ccc(CN(Cc2ccccc2)Cc2ccc(C(=O)OC)cc2)cc1", "solubility": "< 360 µg/mL"}
{"testSmiles": "Cc1ccc(NC(=O)Nc2ccc(CN(Cc3ccccc3)Cc3ccc(NC(=O)Nc4ccc(C)cc4)cc3)cc2)cc1", "solubility": "< 50 µg/mL"}
{"testSmiles": "CC(C)(C)c1ccc(CN(Cc2ccccc2)Cc2ccc(C(C)(C)C)cc2)cc1", "solubility": "< 50 µg/mL"}
{"testSmiles": "O=C(Nc1ccccc1)Nc1ccc(CN(Cc2ccccc2)Cc2ccc(NC(=O)Nc3ccccc3)cc2)cc1", "solubility": "< 500 µg/mL"}
{"testSmiles": "CCN(CC)c1ccc(CN(Cc2ccccc2)Cc2ccc(N(CC)CC)cc2)cc1", "solubility": "< 50 µg/mL"}
{"testSmiles": "O=C(O)c1ccc(CN(Cc2ccccc2)Cc2ccc(C(=O)O)cc2)cc1", "solubility": "< 50 µg/mL"}
{"testSmiles": "Nc1ccc(CN(Cc2ccccc2)Cc2ccc(N)cc2)cc1", "solubility": "< 50 µg/mL"}

###

tested on: PLB-Ser^16 phosphorylation; assay: PLB-Ser16 phosphorylation in isoproterenol-stimulated rat neonatal cardiomyocytes (western blot); type: cell-based; conditions: Rattus norvegicus, Cardiomyocyte, read-out: half-maximal effect, inhibition of phospholamban phosphorylation
measurementName: IC50

{"compound": "CN(C)c1ccc(CN(Cc2ccccc2)Cc2ccc(N(C)C)cc2)cc1 [Compound 2g]", "measurementName": "IC50", "endpointResult": "~40 µM"}

###

assay: Aqueous solubility of free bases and various salts by dissolution at room temperature; format: physicochemical; conditions: water, thermodynamic from solid, HCl salt, read-out: Solubility HCl salt
Recorded solubility for the following compounds
measurementName: solubility

{"compound": "COC(=O)c1ccc(CN(Cc2ccccc2)Cc2ccc(C(=O)OC)cc2)cc1 [Compound 17]", "endpointResult": "< 360 µg/mL"}
{"compound": "O=C(Nc1ccc(F)cc1)Nc1ccc(CN(Cc2ccccc2)Cc2ccc(NC(=O)Nc3ccc(F)cc3)cc2)cc1 [Compound 26]", "endpointResult": "< 1500 µg/mL"}
{"compound": "CCN(CC)c1ccc(CN(Cc2ccccc2)Cc2ccc(N(CC)CC)cc2)cc1 [Compound 23]", "endpointResult": "15000 µg/mL"}
{"compound": "O=C(Nc1ccccc1)Nc1ccc(CN(Cc2ccccc2)Cc2ccc(NC(=O)Nc3ccccc3)cc2)cc1 [Compound 27]", "endpointResult": "< 500 µg/mL"}
{"compound": "O=[N+]([O-])c1ccc(CN(Cc2ccccc2)Cc2ccc([N+](=O)[O-])cc2)cc1 [Compound 20]", "endpointResult": "< 3000 µg/mL"}
{"compound": "CC(C)(C)c1ccc(CN(Cc2ccccc2)Cc2ccc(C(C)(C)C)cc2)cc1 [Compound 19]", "endpointResult": "< 50 µg/mL"}
{"compound": "CN(C)c1ccc(CN(Cc2ccccc2)Cc2ccc(N(C)C)cc2)cc1 [Compound 29]", "endpointResult": "6000 µg/mL"}
{"compound": "Nc1ccc(CN(Cc2ccccc2)Cc2ccc(N)cc2)cc1 [Compound 22]", "endpointResult": "4500 µg/mL"}
{"compound": "O=C(O)c1ccc(CN(Cc2ccccc2)Cc2ccc(C(=O)O)cc2)cc1 [Compound 18]", "endpointResult": "< 50 µg/mL"}
{"compound": "Cc1ccc(NC(=O)Nc2ccc(CN(Cc3ccccc3)Cc3ccc(NC(=O)Nc4ccc(C)cc4)cc3)cc2)cc1 [Compound 25]", "endpointResult": "< 50 µg/mL"}
